- System: Caco-2
- ASSAY: cell viability relative to DMSO; higher = less toxic
- MEASUREMENT_SETUP: 72 h; 10 nM
Please respond with reported cell viability for every item in the list.

Exam item: # return recorded cell viability for input N[C@H](C(=O)O)c1ccc(O)cc1
Marked response: 90.6%

Exam item: Tell us which cell viability value is on record for C[C@@H]1CN(Cc2ccc(F)cc2)[C@@H](C)CN1C(=O)c1cc2c(C(=O)C(=O)N(C)C)cn(C)c2cc1Cl
Marked response: 99.2%

Exam item: State its cell viability for this molecule: Cc1ccc(-c2nc3ccc(C)cn3c2CC(=O)N(C)C)cc1
Marked response: 97%

Exam item: Consider the molecule CCOc1cc2ncc(C#N)c(Nc3ccc(OCc4ccccn4)c(Cl)c3)c2cc1NC(=O)/C=C/CN(C)C . State its measured cell viability.
Marked response: 93.4%

Exam item: Quick one: give measured cell viability for O=C(O)c1ccccc1O
Marked response: 97%

Exam item: Fill in reported cell viability for this entry: CO[C@@H](C(=O)N1Cc2[nH]nc(NC(=O)c3ccc(N4CCN(C)CC4)cc3)c2C1)c1ccccc1
Marked response: 95.4%

Exam item: Dear colleague, please send me the reported cell viability for C[C@@H](O)[C@H]1C(=O)N2C(C(=O)O)=C(S[C@@H]3CN[C@H](C(=O)N(C)C)C3)[C@H](C)[C@H]12 when you can.
Marked response: 99.6%

Exam item: For the molecule NC(=O)c1ncn([C@@H]2O[C@H](CO)[C@@H](O)[C@H]2O)c1N , report cell viability.
Marked response: 98.1%

----------
- Test system: HepG2
- ASSAY: relative viability EC50 (midpoint between 100% and the lowest measured viability); higher = less toxic
- MEASUREMENT_SETUP: 72 h
Kindly state relative viability EC50 for each of the entries shown.

Exam item: Fetch value of relative viability EC50 on HepG2 for NCCc1ccccn1 .
Marked response: > 10 µM

Exam item: Retrieve relative viability EC50 on HepG2; query C[C@H](CCC(=O)O)[C@H]1CC[C@H]2[C@@H]3CC[C@@H]4C[C@H](O)CC[C@]4(C)[C@H]3C[C@H](O)[C@]12C
Marked response: > 10 µM

Exam item: Please indicate recorded relative viability EC50 of O[C@H]([C@H](O)[C@@H]1CO1)[C@H]1CO1 [dianhydrogalactitol] measured with HepG2.
Marked response: > 10 µM

Exam item: Determine reported relative viability EC50 for Cc1cc(C#N)cc(C)c1Oc1nc(Nc2ccc(C#N)cc2)nc(N)c1Br ; test system: HepG2.
Marked response: > 10 µM

Exam item: Enter relative viability EC50 (test system HepG2) for C[C@@]1(C(=O)O)NCCc2cc(O)c(O)cc21
Marked response: > 10 µM

Exam item: Report measured relative viability EC50 on HepG2; entry: COc1ccc(-c2cc3nccn3c(Nc3ncccc3C(N)=O)n2)cc1OC
Marked response: 2.1 µM

Exam item: Supply relative viability EC50 measured with HepG2 for c1ccc(N2CCN(Cc3nc4ccccc4[nH]3)CC2)nc1 .
Marked response: > 10 µM

Exam item: Jot down relative viability EC50 (HepG2) of COc1cc(OC)c(C(=O)CCCCN2CCC3(CC2)NC(=O)NC3=O)cc1NS(=O)(=O)c1ccc(C(F)(F)F)cc1 .
Marked response: > 10 µM

----------
- Test system: U2OS
- ASSAY: cell viability relative to DMSO; higher = less toxic
- MEASUREMENT_SETUP: 72 h; 1000 nM
Field: cell viability. Provide a value for each of the molecules that follow.
Response body: numeric value in %, unit text excluded.

Exam item: For the molecule CC(ONC(=O)c1cc(C(F)(F)F)cc(C(F)(F)F)c1)C(=O)Nc1ccc(Cl)cc1 (stereo not drawn) , report cell viability.
Marked response: 99.6

Exam item: Please give measured cell viability of the following entry: COc1ccc(CCNCC(O)COc2cccc(C)c2)cc1OC (stereo not drawn)
Marked response: 101

Exam item: Please give measured cell viability of the following entry: CN1CCC(c2c[nH]c3ccc(O)cc23)CC1
Marked response: 102

Exam item: Please indicate cell viability recorded for COc1cc2c(cc1OC)-c1c/c(=N\c3c(C)cc(C)cc3C)n(C)c(=O)n1CC2
Marked response: 99.6

Exam item: Tell us which cell viability value is on record for C=CCN1CC[C@]2(C)c3cc(O)ccc3C[C@H]1[C@H]2C
Marked response: 99.2

Exam item: Provide measured cell viability value, entry: CCNC(=O)c1noc(-c2cc(C(C)C)c(O)cc2O)c1-c1ccc(CN2CCOCC2)cc1
Marked response: 3.5

Exam item: Fill in cell viability for record O=C(O)Cc1cccnc1C(=O)O
Marked response: 99.6

Exam item: Using the record for CN(C)CC[C@@]1(c2ccc(Cl)cc2)Cc2ccccc2C(=O)O1 (racemic) [AC-7954-(+/-)] , state its measured cell viability.
Marked response: 105

Exam item: Look up and state reported cell viability for CC#CC(=O)N1CC[C@@H](n2c(=O)n(-c3ccc(Oc4ccccc4)cc3)c3c(N)ncnc32)C1
Marked response: 92.5

Exam item: Please look at this molecule and report its cell viability: O=P1(N(CCCl)CCCl)NCCCO1 (stereo not drawn) [cyclophosphamide]
Marked response: 95.5

Exam item: Look up and state reported cell viability for CCCCCCCCc1ccc(-c2ccc(C(=O)O)cc2)cc1
Marked response: 93

Exam item: Give the value of cell viability reported for the following: C=CC[C@]1(O)CC[C@H]2[C@@H]3CCC4=CC(=O)CCC4=C3C=C[C@@]21C
Marked response: 97.7

Exam item: Provide one value: measured cell viability of CC(C)(C)OC(=O)N[C@H]1CCCCC/C=C\[C@@H]2C[C@@]2(C(=O)NS(=O)(=O)C2CC2)NC(=O)[C@@H]2C[C@@H](OC(=O)N3Cc4cccc(F)c4C3)CN2C1=O
Marked response: 99.4

Exam item: Specify measured cell viability for CCN(Cc1ccc(Cl)nc1)/C(=C/[N+](=O)[O-])NC .
Marked response: 100

Exam item: Recall and state the measured cell viability for N[C@H](C(=O)O)c1ccc(O)cc1 .
Marked response: 102

Exam item: Kindly indicate its recorded cell viability. Item: Cc1cc2c(N3CCCC3)nc(N3CCCC3)nc2n1C
Marked response: 101

Exam item: Could you please provide reported cell viability for CCOc1cc2ncc(C#N)c(Nc3ccc(OCc4ccccn4)c(Cl)c3)c2cc1NC(=O)/C=C/CN(C)C ? Thanks!
Marked response: 88

Exam item: Hello, please tell me recorded cell viability for this one: Cc1cc(C)cc(NC(=O)Cc2ccc(OC(C)(C)C(=O)O)cc2)c1
Marked response: 93.5

----------
Exercise: state measured cell viability for each of the compounds provided.
- System: Calu-3
- ASSAY: cell viability relative to DMSO; higher = less toxic
- MEASUREMENT_SETUP: 72 h; 1 nM
Express the result in % but write the number alone.

Exam item: Give me measured cell viability, please, for this compound: NCCCCN=C(N)N
Marked response: 94.8

Exam item: State its cell viability: CC(=O)OCC(=O)[C@@]1(OC(C)=O)[C@@H](C)C[C@H]2[C@@H]3C[C@H](F)C4=CC(=O)C=C[C@]4(C)[C@@]3(F)[C@@H](O)C[C@@]21C [diflorasone-diacetate]
Marked response: 105

Exam item: Tell me its cell viability given O=P1(NCCCl)OCCCN1CCCl (stereo not drawn) [ifosfamide] as the entry.
Marked response: 95.2

Exam item: For NC(=O)c1ncn([C@@H]2O[C@H](CO)[C@@H](O)[C@H]2O)c1N , write its cell viability.
Marked response: 96.6

Exam item: // fetch cell viability given entry N#Cc1cn([C@@H]2O[C@H](CO)[C@@H](O)[C@H]2O)c2ncnc(N)c12
Marked response: 93

Exam item: Please give the documented cell viability of Cc1coc2c1C(=O)C(=O)c1c-2ccc2c1CCCC2(C)C
Marked response: 109

Exam item: Please indicate cell viability recorded for CC[C@@]1(O)C(=O)OCc2c1cc1n(c2=O)Cc2cc3cc(O)ccc3nc2-1 [10-hydroxycamptothecin]
Marked response: 95.8

Exam item: Identify measured cell viability associated with O=C1CNC(=O)CN1
Marked response: 91.8

Exam item: Return reported cell viability. Input compound: CN1CCC(c2c[nH]c3ccc(O)cc23)CC1
Marked response: 91.9

Exam item: Give cell viability for the following compound: C[C@H](CCC(=O)NCCS(=O)(=O)O)[C@H]1CC[C@H]2[C@@H]3[C@@H](O)C[C@@H]4C[C@H](O)CC[C@]4(C)[C@H]3CC[C@]12C
Marked response: 106

Exam item: Return value of cell viability for input CC(=O)N[C@@H](CSSC[C@H](NC(C)=O)C(=O)O)C(=O)O , no commentary.
Marked response: 93.5

Exam item: Specify reported cell viability for the compound shown: Cc1ccc(NC2=NCCN2)c(Cl)c1
Marked response: 101

Exam item: Quick one: give measured cell viability for C/C(O)=C(\C#N)C(=O)Nc1cc(Br)ccc1Br
Marked response: 92.8

Exam item: Return reported cell viability. Input compound: O=C(NCCN1CCC(n2c(=O)[nH]c3ccccc32)CC1)c1cc2cc(F)ccc2[nH]1
Marked response: 92.2

Exam item: Assign cell viability to the following record: CC(C)Oc1ccc(Cc2ccc(NC3=NCCN3)cc2)cc1
Marked response: 104

Exam item: Please give the documented cell viability of CNCCN(C)Cc1c[nH]nc1-c1ccc(O[C@H]2C[C@H](OCCC3CCOCC3)C2)cc1
Marked response: 96.2

Exam item: State, in one line, measured cell viability of Cc1ccc2c(c1CCC(=O)O)CC[C@@H](NS(=O)(=O)c1ccc(Cl)cc1)C2
Marked response: 93.2

Exam item: Hello, please tell me recorded cell viability for this one: CCNC(=O)NS(=O)(=O)c1sc(CC(C)C)cc1-c1ccc(Cn2c(-c3ccccc3)nc(OC)c2C=O)cc1
Marked response: 107
